Each recorded value in this set is attributed to patent US5491236A.

For 5-hydroxytryptamine (5-HT1A) receptor (Bos taurus, UniProt F6Q2H9), measured pIC50 is reported for the entries below.
pIC50: −log10 of the molar value. Counter-ions that a name gives are not always drawn.

Molecule | pIC50
C=CCN1CC[C@@H]2c3c(cccc3OC)CC[C@@H]21 (racemic) [Example 4 Compound #2, hydrochloride] | 8.55
C=CCN1[C@H](C)C[C@H]2c3c(O)cccc3CC[C@H]21 (relative stereo) [Example 2 Compound #1, hydrochloride] | 9.02
C=CCN1CC[C@@H]2c3cccc(OC)c3CC[C@@H]21.Cl (racemic) [Example 4 Compound #3, hydrochloride] | 6.20
